Tested on: BDBV mucin-domain-deleted glycoprotein pseudotyped VSV
assayNotes: microbe, parasite or virus in culture
Format: cell-based, Bundibugyo ebolavirus
testParameters: Vesicular stomatitis virus, Vero, read-out: EC50 BDBV
pEC50: −log10 of the molar value.
Measured pEC50 values are reported for all entries that follow.
assayMetric: pEC50

>  <molecule>
O=C(CC12CC3CC(C1)CC(c1ccccc1)(C3)C2)NCC(=O)NC1CCN(Cc2ccccc2)CC1

>  <assayMetric>
pEC50

>  <limitOperator>
=

>  <resultValue>
6.37

$$$$
>  <molecule>
CN1CCN(C(=O)C23CC4CC(C2)CC(c2ccccc2)(C4)C3)CC1

>  <assayMetric>
pEC50

>  <limitOperator>
=

>  <resultValue>
6.72

$$$$
>  <molecule>
O=C(CC12CC3CC(C1)CC(c1ccccc1)(C3)C2)NC1CCN(Cc2ccccc2)CC1

>  <assayMetric>
pEC50

>  <limitOperator>
=

>  <resultValue>
6.59

$$$$
>  <molecule>
CN1CC(NC(=O)C23CC4CC(C)(C2)CC(c2ccccc2)(C4)C3)C1 (centres unmarked)

>  <assayMetric>
pEC50

>  <limitOperator>
=

>  <resultValue>
6.72

$$$$
>  <molecule>
CC12CC3CC(C(=O)N[C@H]4CC[C@H](CN)CC4)(C1)CC(c1ccccc1)(C3)C2 (some centres unmarked)

>  <assayMetric>
pEC50

>  <limitOperator>
=

>  <resultValue>
7.10

$$$$
>  <molecule>
O=S(=O)(NC1CCNCC1)C12CC3CC(CC(C3)C1)C2

>  <assayMetric>
pEC50

>  <limitOperator>
<

>  <resultValue>
6.00

$$$$
>  <molecule>
CC1CNCCC1NC(=O)C12CC3CC(C)(C1)CC(c1ccccc1)(C3)C2 (centres unmarked)

>  <assayMetric>
pEC50

>  <limitOperator>
=

>  <resultValue>
6.59

$$$$
>  <molecule>
N[C@H]1CC[C@@H](NC(=O)CC2(c3ccccc3)C3CC4CC(C3)CC2C4)CC1 (some centres unmarked)

>  <assayMetric>
pEC50

>  <limitOperator>
=

>  <resultValue>
6.24

$$$$
>  <molecule>
CC(C)C12CC3CC(C(=O)N[C@H]4CC[C@H](N)CC4)(CC(c4ccccc4)(C3)C1)C2 (some centres unmarked)

>  <assayMetric>
pEC50

>  <limitOperator>
=

>  <resultValue>
5.98

$$$$
>  <molecule>
O=C(NC1CCN(Cc2ccccc2)CC1)C12CC3CC(CC1C3)C2

>  <assayMetric>
pEC50

>  <limitOperator>
<

>  <resultValue>
5.00

$$$$
>  <molecule>
COC(=O)c1ccc(COc2ccccc2CN2CCN(C(=O)CNC(=O)CC34CC5CC(C3)CC(c3ccccc3)(C5)C4)CC2)cc1

>  <assayMetric>
pEC50

>  <limitOperator>
=

>  <resultValue>
5.91

$$$$
>  <molecule>
CC12CC3(C)CC(C(=O)NC4CCNCC4)(C1)CC(c1ccccc1)(C2)C3

>  <assayMetric>
pEC50

>  <limitOperator>
=

>  <resultValue>
6.43

$$$$
>  <molecule>
CC12CC3CC(C(=O)N[C@H]4CN5CCC4CC5)(C1)CC(c1ccccc1)(C3)C2 (some centres unmarked)

>  <assayMetric>
pEC50

>  <limitOperator>
=

>  <resultValue>
6.85

$$$$
>  <molecule>
CN1CCN(CCCOc2ccc(C34CC5CC(CC(C5)C3)C4)cc2)CC1

>  <assayMetric>
pEC50

>  <limitOperator>
=

>  <resultValue>
6.19

$$$$
>  <molecule>
CN1CCC(NC(=O)C23CC4CC(C2)CC(c2ccccc2)(C4)C3)CC1

>  <assayMetric>
pEC50

>  <limitOperator>
=

>  <resultValue>
7.05

$$$$
>  <molecule>
[O-][S+](NC1CCNCC1)C12CC3CC(CC(C3)C1)C2 (centres unmarked)

>  <assayMetric>
pEC50

>  <limitOperator>
<

>  <resultValue>
6.00

$$$$
>  <molecule>
CC12CC3CC(C(=O)NCC4(O)CNC4)(C1)CC(c1ccccc1)(C3)C2 (centres unmarked)

>  <assayMetric>
pEC50

>  <limitOperator>
<

>  <resultValue>
6.00

$$$$
